system: P. aeruginosa ATCC 27853; type: cell-based, Pseudomonas aeruginosa; settings: ATCC 27853
Non-standard residues stand in square brackets, D forms with d. Residues, ends and D or L forms follow the SMILES beside them. Tle = CC(C)(C)[C@H](N)C(=O)O; Dab = NCC[C@H](N)C(=O)O
measure: MIC P. aeruginosa ATCC 27853 (µg/mL)
Express your answer in µg/mL, writing the number without its unit.

1) CC[C@H](C)[C@@H]1NC(=O)[C@H](Cc2c[nH]c3ccccc23)NC(=O)[C@H]([C@@H](C)O)NC(=O)[C@@H]2CCCN2C(=O)[C@H]2CCCN2C(=O)[C@H](CCN)NC(=O)[C@H](C(C)(C)C)NC(=O)[C@H](CCN)NC(=O)[C@H](CCN)NC(=O)[C@H](Cc2c[nH]c3ccccc23)NC(=O)[C@H](CCN)NC(=O)[C@H](CCN)NC(=O)[C@H](CCCCN)NC(=O)[C@H](CCN)NC1=O [Example 36] (cyclo(TWI[Dab]K[Dab][Dab]W[Dab][Dab][Tle][Dab][dP]P)) : 0.06

Okay, now this compound:
Lookup result for CC(C)[C@@H]1NC(=O)[C@H](Cc2c[nH]c3ccccc23)NC(=O)[C@H]([C@@H](C)O)NC(=O)[C@@H]2CCCN2C(=O)[C@H]2CCCN2C(=O)[C@H](CCN)NC(=O)[C@H](C)NC(=O)[C@H](CCN)NC(=O)[C@H](CCN)NC(=O)[C@H](Cc2c[nH]c3ccccc23)NC(=O)[C@H](CCN)NC(=O)[C@H](CCN)NC(=O)[C@H](CCCCN)NC(=O)[C@H](CCN)NC1=O [Example 32] (cyclo(TWV[Dab]K[Dab][Dab]W[Dab][Dab]A[Dab][dP]P)) ; measured MIC P. aeruginosa ATCC 27853: 0.02

====

# MIC P. aeruginosa P1021903 per record follows
test system: Pseudomonas aeruginosa P1021903; type: cell-based; settings: P1021903
Non-standard residues stand in square brackets, D forms with d. Residues, ends and D or L forms follow the SMILES beside them. Dab = NCC[C@H](N)C(=O)O
Write the value in µg/mL as a bare number.

1. CC[C@H](C)[C@@H]1NC(=O)[C@H](Cc2c[nH]c3ccccc23)NC(=O)[C@H](C)NC(=O)[C@@H]2CCCN2C(=O)[C@H]2CCCN2C(=O)[C@H](CCN)NC(=O)[C@H](C(C)C)NC(=O)[C@H](CCN)NC(=O)[C@H](CCN)NC(=O)[C@H](Cc2c[nH]c3ccccc23)NC(=O)[C@H](CCN)NC(=O)[C@H](CCN)NC(=O)[C@H](CCN)NC(=O)[C@H](CCN)NC1=O [Example 23] (cyclo(AWI[Dab][Dab][Dab][Dab]W[Dab][Dab]V[Dab][dP]P)) : 1.50

Field: next molecule
Value (MIC P. aeruginosa P1021903, Pseudomonas aeruginosa P1021903) for record CC[C@H](C)[C@@H]1NC(=O)[C@H](Cc2c[nH]c3ccccc23)NC(=O)[C@H]([C@@H](C)O)NC(=O)[C@@H]2CCCN2C(=O)[C@H]2CCCN2C(=O)[C@H](CCN)NC(=O)[C@H](CC(N)=O)NC(=O)[C@H](CCN)NC(=O)[C@H](CCN)NC(=O)[C@H](Cc2c[nH]c3ccccc23)NC(=O)[C@H](CCN)NC(=O)[C@H](CCN)NC(=O)[C@H](CCCCN)NC(=O)[C@H](CCN)NC1=O [Example 38] (cyclo(TWI[Dab]K[Dab][Dab]W[Dab][Dab]N[Dab][dP]P)) = 0.17

====

system: human red blood cells (hRBC); assay: Hemolysis; assay type: cell-based; conditions: 100
Non-standard residues stand in square brackets, D forms with d. Residues, ends and D or L forms follow the SMILES beside them. Dab = NCC[C@H](N)C(=O)O
measure: Hemolysis at 100 μg/ml

Example entries begin here.
1. CC[C@H](C)[C@@H]1NC(=O)[C@H](Cc2c[nH]c3ccccc23)NC(=O)[C@H]([C@@H](C)O)NC(=O)[C@@H]2CCCN2C(=O)[C@H]2CCCN2C(=O)[C@H](CCN)NC(=O)[C@@H]2CCCN2C(=O)[C@H](CCN)NC(=O)[C@H](CCN)NC(=O)[C@H](Cc2c[nH]c3ccccc23)NC(=O)[C@H](CCN)NC(=O)[C@H](CCN)NC(=O)[C@H](CCCCN)NC(=O)[C@H](CCN)NC1=O [Example 17] (cyclo(TWI[Dab]K[Dab][Dab]W[Dab][Dab]P[Dab][dP]P)) : 0.5%
2. CC[C@H](C)[C@@H]1NC(=O)[C@H](Cc2c[nH]c3ccccc23)NC(=O)[C@H](C)NC(=O)[C@@H]2CCCN2C(=O)[C@H]2CCCN2C(=O)[C@H](CCN)NC(=O)[C@H](C(C)C)NC(=O)[C@H](CCN)NC(=O)[C@H](CCN)NC(=O)[C@H](Cc2c[nH]c3ccccc23)NC(=O)[C@H](CCN)NC(=O)[C@H](CCN)NC(=O)[C@H](CCN)NC(=O)[C@H](CCN)NC1=O [Example 23] (cyclo(AWI[Dab][Dab][Dab][Dab]W[Dab][Dab]V[Dab][dP]P)) : 0.5%

Note to self: Hemolysis at 100 μg/ml recorded for CC[C@H](C)[C@@H]1NC(=O)[C@H](Cc2c[nH]c3ccccc23)NC(=O)[C@H]([C@@H](C)O)NC(=O)[C@@H]2CCCN2C(=O)[C@H]2CCCN2C(=O)[C@H](CCN)NC(=O)[C@H](C)NC(=O)[C@H](CCN)NC(=O)[C@H](CCN)NC(=O)[C@H](Cc2c[nH]c3ccccc23)NC(=O)[C@H](Cc2c[nH]cn2)NC(=O)[C@H](CCN)NC(=O)[C@H](CCCCN)NC(=O)[C@H](CCN)NC1=O [Example 21] (cyclo(TWI[Dab]K[Dab]HW[Dab][Dab]A[Dab][dP]P)) was 0.4%

====

system: Pseudomonas aeruginosa P1021903; assay type: cell-based; details: P1021903
Non-standard residues stand in square brackets, D forms with d. Residues, ends and D or L forms follow the SMILES beside them. Nle = CCCC[C@H](N)C(=O)O; Dab = NCC[C@H](N)C(=O)O
measure: MIC P. aeruginosa P1021903 (µg/mL)
Write the value in µg/mL as a bare number.

Entry CCCC[C@@H]1NC(=O)[C@H](Cc2c[nH]c3ccccc23)NC(=O)[C@H]([C@@H](C)O)NC(=O)[C@@H]2CCCN2C(=O)[C@H]2CCCN2C(=O)[C@H](CCN)NC(=O)[C@H](C)NC(=O)[C@H](CCN)NC(=O)[C@H](CCN)NC(=O)[C@H](Cc2c[nH]c3ccccc23)NC(=O)[C@H](CCN)NC(=O)[C@H](CCN)NC(=O)[C@H](CCCCN)NC(=O)[C@H](CCN)NC1=O [Example 31] (cyclo(TW[Nle][Dab]K[Dab][Dab]W[Dab][Dab]A[Dab][dP]P)) , Pseudomonas aeruginosa P1021903 data, MIC P. aeruginosa P1021903 value: 0.40

====

Measured Cytotoxicity GI50 Hela cells values are reported for all entries that follow.
test system: HELA cells (Acc57); test: Cytotoxicity assay, MTT reduction (LC 50, GI 50); type: cell-based
Non-standard residues stand in square brackets, D forms with d. Residues, ends and D or L forms follow the SMILES beside them. dDab = NCC[C@@H](N)C(=O)O; Dab = NCC[C@H](N)C(=O)O
Could you give me the number in µM? Just the number is fine.

See these solved cases before continuing.
1. CC[C@H](C)[C@@H]1NC(=O)[C@H](Cc2c[nH]c3ccccc23)NC(=O)[C@H](CCC(=O)O)NC(=O)[C@@H]2CCCN2C(=O)[C@H]2CCCN2C(=O)[C@H](CCC(N)=O)NC(=O)[C@H](C)NC(=O)[C@H](CCN)NC(=O)[C@H](CCN)NC(=O)[C@H](Cc2c[nH]c3ccccc23)NC(=O)[C@H](CCN)NC(=O)[C@@H](CCN)NC(=O)[C@H](CCCCN)NC(=O)[C@H](CCN)NC1=O [Example 45] (cyclo(EWI[Dab]K[dDab][Dab]W[Dab][Dab]AQ[dP]P)) : 50
2. CC[C@H](C)[C@@H]1NC(=O)[C@H](Cc2c[nH]c3ccccc23)NC(=O)[C@H]([C@@H](C)O)NC(=O)[C@@H]2CCCN2C(=O)[C@H]2CCCN2C(=O)[C@H](CCN)NC(=O)[C@H](C(C)C)NC(=O)[C@H](CCN)NC(=O)[C@H](CCN)NC(=O)[C@H](Cc2c[nH]c3ccccc23)NC(=O)[C@H](CCN)NC(=O)[C@H](CCN)NC(=O)[C@H](CCCCN)NC(=O)[C@H](CCC(N)=O)NC1=O [Example 30] (cyclo(TWIQK[Dab][Dab]W[Dab][Dab]V[Dab][dP]P)) : 46

// switching to the query molecule
CC[C@H](C)[C@@H]1NC(=O)[C@H](Cc2c[nH]c3ccccc23)NC(=O)[C@H]([C@@H](C)O)NC(=O)[C@@H]2CCCN2C(=O)[C@H]2CCCN2C(=O)[C@H](CCN)NC(=O)[C@@H](C)NC(=O)[C@H](CCN)NC(=O)[C@H](CCN)NC(=O)[C@H](Cc2c[nH]c3ccccc23)NC(=O)[C@H](CCN)NC(=O)[C@H](CCN)NC(=O)[C@H](CCCCN)NC(=O)[C@H](CCN)NC1=O [Example 3] (cyclo(TWI[Dab]K[Dab][Dab]W[Dab][Dab][dA][Dab][dP]P)) yielded Cytotoxicity GI50 Hela cells of 34
